assay: Toxicity in BALB/c mouse assessed as animal survival at 1.25 mg/kg, NAS measured for 5 days; type: organism-based; conditions: in vivo, inhaled or intranasal, time 5 day
METRIC NAME: survival at 120 h (%)
Use % as the unit, but write only the number.

In: Please list survival at 120 h recorded for the substance `H-KRIVRRIKIFLR-OH`
Out: 30

----------
test: Binding affinity to gram negative bacterial lipid II assessed as dissociation constant by BLI analysis; set-up: species or system Bacteria
METRIC NAME: Kd (nM)
Number only, in nM; omit the unit.

| SUBSTANCE | Kd (nM) |
| --- | --- |
| H-KRIVQRIKDFLR-OH | 171 |

Next, consider the following substance.
In: Dear colleague, please send me the reported Kd for `H-KRIVRRIKIFLR-OH` when you can.
Out: 7.14
